Sourced from PubChem BioAssay (NCI)

- System: CCRF-CEM leukemia
- experimentDescription: NCI tumour cell line growth inhibition, 48 h
readoutType: TGI

>>> reportedvalue("COc1ccc(C[C@H]2NC[C@H](OC(C)=O)[C@H]2OC(C)=O)cc1")
"1.18 µM"
>>> reportedvalue("CC1=CC(=C(c2ccc(N)c(C)c2)c2ccc(N)c(C)c2)C=CC1=N")
"23 µM"
>>> reportedvalue("COc1ccc(/C=C/C(=O)/C=C(/C=C/c2ccc(OC)c(OC)c2)OB(F)F)cc1OC")
"2.63 µM"
>>> reportedvalue("CC(C)C(=O)CC(Sc1ccc(N)cc1)c1ccccc1 (stereo not given)")
"70.7 µM"
>>> reportedvalue("NS(=O)(=O)c1ccc(NC(=S)/N=C/c2c(O)c3ccccc3[nH]c2=O)cc1")
"> 100 µM"

* * *

- Tested on: IGROV1 ovarian
- experimentDescription: NCI tumour cell line growth inhibition, 48 h
Some compounds, each annotated with its measured TGI.
readoutType: TGI

>>> reportedvalue("COC(=O)C(=O)C(C(=O)C(=O)Nc1ccc([N+](=O)[O-])cc1[N+](=O)[O-])c1nc2ccc([N+](=O)[O-])cc2[nH]c1=O (stereo unspecified)")
"> 100 µM"
>>> reportedvalue("CCNCCNc1cc(-c2ccc(Cl)cc2)c(C#N)c2nc3ccccc3n12")
"3.37 µM"
>>> reportedvalue("COC(=O)c1ccc(-c2nc3cc(F)c(F)cc3nc2C#N)cc1")
"20.4 µM"
>>> reportedvalue("COc1cc(/C=C2\\N=C(c3ccccc3)N(c3ccc(S(=O)(=O)Nc4nccs4)cc3)C2=O)ccc1O")
"> 100 µM"
>>> reportedvalue("CC(=O)CC(=O)CCCC(=O)Nc1ccc(Cl)cc1Cl")
"> 100 µM"
>>> reportedvalue("CC1(C)C2CC1C(/C=N\\OCC(=O)O)=CC2=O (stereo unspecified)")
"> 100 µM"
>>> reportedvalue("CC(SC(=S)N1CCCC1)C(=O)Nc1nnc(-c2ccc(Cl)cc2)o1 (stereo unspecified)")
"> 100 µM"
>>> reportedvalue("CCOC(=O)NC(OCCN(C)C)(C(F)(F)F)C(F)(F)F")
"> 100 µM"
>>> reportedvalue("CC(C)(C)c1cc(C(C)(C)C)c(P=C(Cl)Cl)c(C(C)(C)C)c1 (stereo unspecified)")
"> 100 µM"
>>> reportedvalue("CCOC(=O)c1sc2ncn(Cc3cccc(Cl)c3)c(=O)c2c1C")
"21.2 µM"
>>> reportedvalue("OCc1ccc(N(Cc2ccc(F)cc2)C2CCC2)cc1Cl")
"0.339 µM"
>>> reportedvalue("O=C(Nc1ncc([N+](=O)[O-])s1)c1cccc([N+](=O)[O-])c1")
"> 56.3 µM"
>>> reportedvalue("CC(C)/C(Cl)=N/OC(NC(=O)Nc1ccc(Cl)c(Cl)c1)(C(F)(F)F)C(F)(F)F")
"35.2 µM"
>>> reportedvalue("COc1ccc2c(c1OC)C(Br)CCC(Br)(Br)C2=O (stereo unspecified)")
"18.8 µM"
>>> reportedvalue("Cc1ccc([N+](=O)[O-])cc1S(=O)(=O)Nc1ccc(C2=NOC(c3ccccc3)C2)cc1 (stereo unspecified)")
"> 100 µM"
>>> reportedvalue("CCC(C)C1=C(O)[N+]2([O-])Oc3ccc(-c4c(O)c(O)c(-c5ccc(O)cc5)c(OC(C)=O)c4OC(C)=O)cc3OC2(C(C)CC)C(=O)N1O (stereo unspecified)")
"> 50 µM"
>>> reportedvalue("CS(=O)(=O)c1ccc(Oc2nccc(-c3c(-c4ccc(F)cc4)ncn3C3CCNCC3)n2)cc1")
"> 25 µM"
>>> reportedvalue("CCC12CCC(O)C1N(C)CCC2Sc1ccccc1 (stereo unspecified)")
"> 100 µM"
>>> reportedvalue("N#Cc1c(-c2cccc(Br)c2)cc(-c2ccc(Cl)cc2)nc1N")
"34.3 µM"
>>> reportedvalue("CCCCCCC(O)C/C=C/CCCCCC/C(C(=O)OC)=C(/O)C(=O)OCC (stereo unspecified)")
"> 100 µM"
>>> reportedvalue("c1ccc(Oc2c3ccccc3nc3ccccc23)cc1")
"15.8 µM"
>>> reportedvalue("C=C1C(=O)O[C@H]2[C@H]1CC/C(COC(=O)/C=C/c1cccnc1)=C\\CC[C@@]1(C)O[C@@H]21")
"7.86 µM"
>>> reportedvalue("O=c1oc2ccccc2cc1-c1nc2ccccc2c(=O)[nH]1")
"> 100 µM"
>>> reportedvalue("COC(=O)CC(SCCO)SCCO")
"> 100 µM"
>>> reportedvalue("C(=C\\c1ccccc1)/Cn1nc(-c2ccccc2)nc1-c1cnccn1")
"> 100 µM"
>>> reportedvalue("CN(C)Cc1cc(N=Nc2c(Cl)cccc2Cl)ccc1O")
"> 100 µM"

* * *

Some molecules, each annotated with its measured TGI.
- Tested on: RXF 393 renal
- experimentDescription: NCI tumour cell line growth inhibition, 48 h
readoutType: TGI

>>> reportedvalue("C=CC[P@@]1(=O)O[C@H](c2ccccc2)C(C)N1C(C)C (stereo partly drawn)")
"> 100 µM"
>>> reportedvalue("O=C(Nc1ncc([N+](=O)[O-])s1)c1cccc([N+](=O)[O-])c1")
"6.91 µM"
>>> reportedvalue("CCOC(=O)NC(Nc1cccc(F)c1)(C(F)(F)F)C(F)(F)F")
"> 100 µM"
>>> reportedvalue("CC12CC(=O)OC(Cc3ccccc31)O2 (stereo not drawn)")
"> 100 µM"
>>> reportedvalue("Cc1ccc2c(/C=C/C(=O)c3cc(CN4CCOCC4)c(O)c4nc(C)ccc34)cc(CN3CCOCC3)c(O)c2n1")
"2.27 µM"
>>> reportedvalue("CCOC(=O)N(C)CCC1CC=CC(=O)C1c1cccc(OC)c1OC (stereo not drawn)")
"27.5 µM"
>>> reportedvalue("NS(=O)(=O)c1ccc(NC(=S)/N=C/c2c(O)c3ccccc3[nH]c2=O)cc1")
"> 100 µM"
>>> reportedvalue("O=c1ccc(-c2ccc(-n3ccnc3)cc2)nn1CCO")
"> 100 µM"
